# assayProcedure: Lipophilicity, logD of compound at pH 7.4 by HPLC analysis
# Assay type: physicochemical
# recordedConditions: buffer
Attribute: logD

- compound: "C[C@H]1C(=O)N(C)C=Cc2cc(OCCCOc3ccc4c(c3)C=CN(C)C(=O)[C@@H]4C)ccc21"
  logD: 6.7
- compound: "C[C@H]1C(=O)N(C)C=Cc2cc(OCCCCCCCOc3ccc4c(c3)C=CN(C)C(=O)[C@@H]4C)ccc21"
  logD: 8.5
- compound: "C[C@H]1C(=O)N(C)C=Cc2cc(OCCCCCOc3ccc4c(c3)C=CN(C)C(=O)[C@@H]4C)ccc21"
  logD: 7.4
- compound: "C[C@H]1C(=O)N(C)C=Cc2cc(CN3CCN(Cc4ccc5c(c4)C=CN(C)C(=O)[C@@H]5C)CC3)ccc21"
  logD: 5.43
- compound: "C[C@H]1C(=O)N(C)C=Cc2cc(OCCOc3ccc4c(c3)C=CN(C)C(=O)[C@@H]4C)ccc21"
  logD: 5.8
- compound: "C[C@H]1C(=O)N(C)C=Cc2cc(OCCCCOc3ccc4c(c3)C=CN(C)C(=O)[C@@H]4C)ccc21"
  logD: 7.1
- compound: "CC1C(=O)N(C)C=Cc2ccc(OCCCCCOc3ccc4c(c3)C(C)C(=O)N(C)C=C4)cc21 (configuration not stated)"
  logD: 7.5

* * *

Reported log10(EC50) by item:
# target: Bromodomain-containing protein 4 (Homo sapiens)
# assayProcedure: Inhibition of halo-tagged BRD4 (unknown origin) expressed in HEK293 cells incubated for 4 hrs by biosensor assay
# Format: cell-based
assayMetric: log10(EC50) (log10 of the value in nM)

- compound: "C[C@H]1C(=O)N(C)C=Cc2cc(OCCCCOc3ccc4c(c3)C=CN(C)C(=O)[C@@H]4C)ccc21"
  log10(EC50): 0.20
- compound: "COc1nnc2ccc(N3CCC(c4ccc(OCCN5CCN(C)C(=O)[C@H]5C)cc4)CC3)nn12 [AZD-5153]"
  log10(EC50): 1.20
- compound: "C[C@H]1C(=O)N(C)C=Cc2cc(OCCCCCOc3ccc4c(c3)C=CN(C)C(=O)[C@@H]4C)ccc21"
  log10(EC50): 0.90
- compound: "C[C@@H]1C(=O)N(C)CCN1CCOc1ccc(C2CCN(c3ccc4nncn4n3)CC2)cc1"
  log10(EC50): 3.00
- compound: "C[C@H]1C(=O)N(C)C=Cc2cc(OCCCOc3ccc4c(c3)C=CN(C)C(=O)[C@@H]4C)ccc21"
  log10(EC50): 0.40

* * *

Listed here are molecules together with their documented pIC50.
# target: C-C motif chemokine 2 (Homo sapiens, UniProt P13500)
# Sequence (P13500 whole entry): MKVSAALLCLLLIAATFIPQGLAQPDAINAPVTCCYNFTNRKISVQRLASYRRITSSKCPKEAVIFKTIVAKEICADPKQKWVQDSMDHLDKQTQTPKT
# assayProcedure: Inhibition of MCP-1 in LPS-stimulated human whole blood pretreated with compound for 30 mins followed by LPS-stimulation and measured after 10 mins by microplate analysis
# Format: tissue-based
pIC50: −log10 of the molar value.

- molecule: "COc1cc2c(cc1-c1c(C)noc1C)ncc1[nH]c(=O)n([C@H](C)c3ccccn3)c12"
  target: "C-C motif chemokine 2 (Homo sapiens, UniProt P13500)"
  pIC50: 6.70
- molecule: "CC1C(=O)N(C)C=Cc2ccc(OCCCCCCOc3ccc4c(c3)C(C)C(=O)N(C)C=C4)cc21 (stereo not given)"
  target: "C-C motif chemokine 2 (Homo sapiens, UniProt P13500)"
  pIC50: 5.40
- molecule: "COc1nnc2ccc(N3CCC(c4ccc(OCCN5CCN(C)C(=O)[C@H]5C)cc4)CC3)nn12 [AZD-5153]"
  target: "C-C motif chemokine 2 (Homo sapiens, UniProt P13500)"
  pIC50: 7.80
- molecule: "C[C@H]1C(=O)N(C)C=Cc2cc(OCCCCCOc3ccc4c(c3)C=CN(C)C(=O)[C@@H]4C)ccc21"
  target: "C-C motif chemokine 2 (Homo sapiens, UniProt P13500)"
  pIC50: 7.90
- molecule: "COc1cc2c(cc1OC)[C@@H](C)C(=O)N(C)C=C2"
  target: "C-C motif chemokine 2 (Homo sapiens, UniProt P13500)"
  pIC50: 6.00
- molecule: "CC1C(=O)N(C)C=Cc2ccc(OCCCCCOc3ccc4c(c3)C(C)C(=O)N(C)C=C4)cc21 (stereo not given)"
  target: "C-C motif chemokine 2 (Homo sapiens, UniProt P13500)"
  pIC50: 4.80
- molecule: "C[C@@H]1C(=O)N(C)CCN1CCOc1ccc(C2CCN(c3ccc4nncn4n3)CC2)cc1"
  target: "C-C motif chemokine 2 (Homo sapiens, UniProt P13500)"
  pIC50: 5.70
- molecule: "C[C@H]1C(=O)N(C)C=Cc2cc(OCCCCCCCOc3ccc4c(c3)C=CN(C)C(=O)[C@@H]4C)ccc21"
  target: "C-C motif chemokine 2 (Homo sapiens, UniProt P13500)"
  pIC50: 7.10
- molecule: "C[C@H]1C(=O)N(C)C=Cc2cc(OCCCCOc3ccc4c(c3)C=CN(C)C(=O)[C@@H]4C)ccc21"
  target: "C-C motif chemokine 2 (Homo sapiens, UniProt P13500)"
  pIC50: 8.30
- molecule: "COCC(COC)n1c(-c2cc(C)c(=O)n(C)c2)nc2cc(N3CCOCC3)ccc21"
  target: "C-C motif chemokine 2 (Homo sapiens, UniProt P13500)"
  pIC50: 7.60
- molecule: "Cc1sc2c(c1C)C(c1ccc(Cl)cc1)=N[C@@H](CC(=O)OC(C)(C)C)c1nnc(C)n1-2"
  target: "C-C motif chemokine 2 (Homo sapiens, UniProt P13500)"
  pIC50: 6.20
- molecule: "C[C@H]1C(=O)N(C)C=Cc2cc(CN3CCN(Cc4ccc5c(c4)C=CN(C)C(=O)[C@@H]5C)CC3)ccc21"
  target: "C-C motif chemokine 2 (Homo sapiens, UniProt P13500)"
  pIC50: 8.20
- molecule: "C[C@H]1C(=O)N(C)C=Cc2cc(OCCOc3ccc4c(c3)C=CN(C)C(=O)[C@@H]4C)ccc21"
  target: "C-C motif chemokine 2 (Homo sapiens, UniProt P13500)"
  pIC50: 6.90
- molecule: "COCc1nc2cnc3cc(-c4c(C)noc4C)c(OC[C@H]4CCNC4)cc3c2n1[C@H](C)c1ccccc1 [GSK778]"
  target: "C-C motif chemokine 2 (Homo sapiens, UniProt P13500)"
  pIC50: 6.80
- molecule: "C[C@H]1C(=O)N(C)C=Cc2cc(OCCCOc3ccc4c(c3)C=CN(C)C(=O)[C@@H]4C)ccc21"
  target: "C-C motif chemokine 2 (Homo sapiens, UniProt P13500)"
  pIC50: 7.30

* * *

# target: C-C motif chemokine 2 (Homo sapiens, UniProt P13500)
# assayProcedure: Inhibition of MCP-1 in LPS-stimulated human PBMC cells pretreated with compound for 30 mins followed by LPS-stimulation and measured after 10 mins by microplate analysis
# Format: cell-based
pIC50: −log10 of the molar value.
Note to self: values exactly at 8 are 1. So pIC50 at or above 8 is 1, below is 0.

- itemSmiles: "C[C@H]1C(=O)N(C)C=Cc2cc(OCCCCOc3ccc4c(c3)C=CN(C)C(=O)[C@@H]4C)ccc21"
  classification: 1
- itemSmiles: "C[C@H]1C(=O)N(C)C=Cc2cc(OCCCCCCCOc3ccc4c(c3)C=CN(C)C(=O)[C@@H]4C)ccc21"
  classification: 1
- itemSmiles: "COc1nnc2ccc(N3CCC(c4ccc(OCCN5CCN(C)C(=O)[C@H]5C)cc4)CC3)nn12"
  classification: 1
- itemSmiles: "C[C@H]1C(=O)N(C)C=Cc2cc(OCCOc3ccc4c(c3)C=CN(C)C(=O)[C@@H]4C)ccc21"
  classification: 1
- itemSmiles: "COc1cc2c(cc1-c1c(C)noc1C)ncc1[nH]c(=O)n([C@H](C)c3ccccn3)c12"
  classification: 0
- itemSmiles: "C[C@H]1C(=O)N(C)C=Cc2cc(OCCCCCOc3ccc4c(c3)C=CN(C)C(=O)[C@@H]4C)ccc21"
  classification: 1

* * *

# pIC50 annotations
# target: Bromodomain-containing protein 4 (Homo sapiens)
# assayProcedure: Inhibition of BRD4 BD1 (unknown origin) by TR-FRET assay
pIC50: −log10 of the molar value.
assayMetric: pIC50

- molecule: "C[C@H]1C(=O)N(C)C=Cc2cc(OCCCOc3ccc4c(c3)C=CN(C)C(=O)[C@@H]4C)ccc21"
  assayMetric: "pIC50"
  measurement: 7.00
- molecule: "C[C@H]1C(=O)N(C)C=Cc2cc(OCCCCCOc3ccc4c(c3)C=CN(C)C(=O)[C@@H]4C)ccc21"
  assayMetric: "pIC50"
  measurement: 7.40
- molecule: "CC1C(=O)N(C)C=Cc2ccc(OCCCCCCOc3ccc4c(c3)C(C)C(=O)N(C)C=C4)cc21 (stereo not given)"
  assayMetric: "pIC50"
  measurement: 5.50
- molecule: "C[C@@H]1C(=O)N(C)CCN1CCOc1ccc(C2CCN(c3ccc4nncn4n3)CC2)cc1"
  assayMetric: "pIC50"
  measurement: 4.60
- molecule: "CC1C(=O)N(C)C=Cc2ccc(OCCCCCOc3ccc4c(c3)C(C)C(=O)N(C)C=C4)cc21 (stereo not given)"
  assayMetric: "pIC50"
  measurement: 6.20
